# Tested on: HepG2
# methodSummary: Cytotoxic activity against human HepG2 cells after 24 hrs by MTT assay
# Type: functional, cell-based
# recordedConditions: HepG2, 24 h
Overview of reported IC50 across a group of compounds:

Worked cases, answers included:
| chemicalSmiles | IC50 |
| --- | --- |
| C#Cc1cccc(C#CC(=O)[C@H]2CC[C@H]3[C@@H]4CC=C5C[C@@H](O)CC[C@]5(C)[C@H]4CC[C@]23C)c1 | 42.6 µM |
| Cc1cc(C)c(C#CC(=O)[C@H]2CC[C@H]3[C@@H]4CC=C5C[C@@H](O)CC[C@]5(C)[C@H]4CC[C@]23C)cc1C | > 50 µM |
| COc1ccc(C#CC(=O)[C@H]2CC[C@H]3[C@@H]4CC=C5C[C@@H](O)CC[C@]5(C)[C@H]4CC[C@]23C)cc1 | > 50 µM |

Reported IC50 for `Cc1cc(C#CC(=O)[C@H]2CC[C@H]3[C@@H]4CC=C5C[C@@H](O)CC[C@]5(C)[C@H]4CC[C@]23C)ccc1F` : what is it?
> 50 µM

What IC50 value was documented for this compound, `C[C@]12CC[C@H]3[C@@H](CC=C4C[C@@H](O)CC[C@@]43C)[C@@H]1CC[C@@H]2C(=O)C#Cc1ccccc1C(F)(F)F` ?
38.4 µM

May I ask what IC50 has been recorded for `C[C@]12CC[C@H](O)CC1=CC[C@@H]1[C@@H]2CC[C@]2(C)C(=O)CC[C@@H]12` ?
> 50 µM
